Counter-ions that a name gives are not always drawn.
Listed next: entries and their corresponding melting point.
Reported Property: melting point

{"Compound": "Cl.N=C(NCCCCc1ccc(OCCCc2nnn[nH]2)cc1)NC(=O)c1nc(Cl)c(N)nc1N", "Endpoint Result": "125 to 127 °C (dec.)"}
{"Compound": "N=C(NCCCCCCCCCN)NC(=O)c1nc(Cl)c(N)nc1N (as salt: hydrochloride) [compound 19335, dihydrochloride]", "Endpoint Result": "155 to 157 °C (dec.)"}
{"Compound": "CC(C)(C)OC(=O)NCCCCCCCCCCCCNC(=N)NC(=O)c1nc(Cl)c(N)nc1N", "Endpoint Result": "154 to 156 °C"}
{"Compound": "CC(C)[C@H](NS(=O)(=O)c1ccc(CCCCNC(=N)NC(=O)c2nc(Cl)c(N)nc2N)cc1)C(N)=O.Cl", "Endpoint Result": "154 to 156 °C (dec.)"}
{"Compound": "N=C(N)NCCCCCCCCCNC(=N)NC(=O)c1nc(Cl)c(N)nc1N (as salt: hydrochloride) [compound 19006, dihydrochloride]", "Endpoint Result": "178 to 180 °C"}
{"Compound": "N=C(N)NCCCOCCCNC(=N)NC(=O)c1nc(Cl)c(N)nc1N (as salt: hydrochloride)", "Endpoint Result": "72 to 75 °C (dec.)"}
{"Compound": "N=C(NCCCCCCCCCCCN)NC(=O)c1nc(Cl)c(N)nc1N (as salt: hydrochloride) [compound 23682, dihydrochloride]", "Endpoint Result": "220 to 222 °C"}

* * *

Counter-ions that a name gives are not always drawn.
Listed next: entries and their corresponding melting point.
Reported Property: melting point

{"Compound": "N=C(NCCCCc1ccc(OCCCc2ncc[nH]2)cc1)NC(=O)c1nc(Cl)c(N)nc1N", "Endpoint Result": "123 to 126 °C (dec.)"}
{"Compound": "N#CCOc1ccc(CCCCNC(=N)NC(=O)c2nc(Cl)c(N)nc2N)cc1", "Endpoint Result": "129 to 132 °C"}
{"Compound": "N=C(NCCOCCOCCN)NC(=O)c1nc(Cl)c(N)nc1N", "Endpoint Result": "87 to 90 °C"}
{"Compound": "N=C(NCCCCc1ccc(OCC(=O)Nc2ncc[nH]2)cc1)NC(=O)c1nc(Cl)c(N)nc1N (as salt: hydrochloride) [compound 16437, dihydrochloride]", "Endpoint Result": "172 to 174 °C"}
{"Compound": "N=C(NCCCCc1ccc(OCC(=O)Nc2ccccc2)cc1)NC(=O)c1nc(Cl)c(N)nc1N", "Endpoint Result": "168 to 170 °C"}
{"Compound": "N=C(N)NCCCCCCCCCCCCNC(=N)NC(=O)c1nc(Cl)c(N)nc1N (as salt: hydrochloride) [compound 23683, dihydrochloride]", "Endpoint Result": "145 to 147 °C"}
{"Compound": "CC(C)(C)OC(=O)NCCCCCCCCNC(=N)NC(=O)c1nc(Cl)c(N)nc1N", "Endpoint Result": "189 to 191 °C"}
{"Compound": "N=C(NCCCCc1ccc(OCC(=O)NCC(N)=O)cc1)NC(=O)c1nc(Cl)c(N)nc1N (as salt: HCl)", "Endpoint Result": "178 to 180 °C (dec.)"}

* * *

Listed next: entries and their corresponding pEC50.
molecular target: airway epithelial sodium currents (sodium channel) (UniProt A0A8I3MKE6+A0A8I3Q679+Q95165); test: Sodium channel blocking activity: inhibition of short circuit current (ISC) in airway epithelial monolayers mounted in Ussing chambers; type: cell-based, human, dog, sheep or rodent; details: Selected Cyclic Pyrazinoylguanidines (Formula III); mean ± spread
pEC50: −log10 of the molar value. Where a name gives a salt, the structure may show the parent alone.

{"Compound": "N=C(NCCCCC1CCN(CCCN)CC1)NC(=O)c1nc(Cl)c(N)nc1N [compound 25510, trihydrochloride]", "pEC50": 7.21}
{"Compound": "N=C(NCCCCC1CCN(CCCO)CC1)NC(=O)c1nc(Cl)c(N)nc1N [compound 25310, dihydrochloride]", "pEC50": 6.77}
{"Compound": "N=C(NCCCCC1CCN(CCO)CC1)NC(=O)c1nc(Cl)c(N)nc1N [compound 25193, dihydrochloride]", "pEC50": 7.00}
